// provenance: BigSolDB 2.1

Conditions: in 1,2-dichloroethane, 328.15 K
Property name: solubility (mole fraction)
Please reply with the number alone, leaving off any unit.

Query: Suppose we examine the compound O=C(O)c1ccco1 ; what solubility (mole fraction) value has been reported?
Reply: 0.103

----------
Settings: in MIBK, 288.15 K
Property name: solubility (mole fraction)

Query: Suppose we examine the compound O=C(O)c1ccco1 ; what solubility (mole fraction) value has been reported?
Reply: 0.11

----------
Conditions: in toluene, 288.15 K
Property name: solubility (mole fraction)

Query: Suppose we examine the compound O=C(O)c1ccco1 ; what solubility (mole fraction) value has been reported?
Reply: 0.006

----------
Conditions: in n-hexane, 313.15 K
Property name: solubility (mole fraction)

Query: Suppose we examine the compound O=C(O)c1ccco1 ; what solubility (mole fraction) value has been reported?
Reply: 0.002
